experiment: chemical genetic growth profiling, strain panel (AID 1159580);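 note: tested at 20 µM; growth read once vehicle control cultures reached saturation at 30 °C; 1 = growth at the plate median or of vehicle wells; lower values mean less growth of the strain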; conditions: S. cerevisiae deletion strains, growth OD, locus YAL013W, strain DEP1, stronger effect = lower value
Hit rate of the full screen: of about 5,500 compounds, about 2,000 (36%) were called active. Roughly 18% stayed inconclusive and do not appear here. The list shows a part of the results.
Task for the reader: assign each of the following compounds its reported normalized growth.
One number for each entry.

>  <compound>
Cc1ccc(CSC(=N)N)cc1

>  <normalized growth>
1.01

$$$$
>  <compound>
Cc1ccc(CS/C(N)=N\N)cc1

>  <normalized growth>
0.993

$$$$
>  <compound>
CC[C@@H](C(=O)[C@@H](C)[C@@H](O)[C@H](C)[C@@H]1O[C@@H]([C@@H](CC)C(=O)O)CC[C@@H]1C)[C@H]1OC2(C=C[C@@H](O)[C@]3(CC[C@@](C)([C@H]4CC[C@](O)(CC)[C@H](C)O4)O3)O2)[C@H](C)C[C@@H]1C (stereo not given in full)

>  <normalized growth>
1.02

$$$$
>  <compound>
C[C@@]12C(=O)OC(=O)[C@]1(C)C1CCC2O1

>  <normalized growth>
0.966

$$$$

Now let's try a different one.
Task: For the compound `O=C(CCN1CCOCC1)c1ccc2c(c1)OCCO2` , give its measured normalized growth value.
Output: 0.979
